targetOfAssay: UniProt Q8WUI4
Sequence (Q8WUI4 whole entry): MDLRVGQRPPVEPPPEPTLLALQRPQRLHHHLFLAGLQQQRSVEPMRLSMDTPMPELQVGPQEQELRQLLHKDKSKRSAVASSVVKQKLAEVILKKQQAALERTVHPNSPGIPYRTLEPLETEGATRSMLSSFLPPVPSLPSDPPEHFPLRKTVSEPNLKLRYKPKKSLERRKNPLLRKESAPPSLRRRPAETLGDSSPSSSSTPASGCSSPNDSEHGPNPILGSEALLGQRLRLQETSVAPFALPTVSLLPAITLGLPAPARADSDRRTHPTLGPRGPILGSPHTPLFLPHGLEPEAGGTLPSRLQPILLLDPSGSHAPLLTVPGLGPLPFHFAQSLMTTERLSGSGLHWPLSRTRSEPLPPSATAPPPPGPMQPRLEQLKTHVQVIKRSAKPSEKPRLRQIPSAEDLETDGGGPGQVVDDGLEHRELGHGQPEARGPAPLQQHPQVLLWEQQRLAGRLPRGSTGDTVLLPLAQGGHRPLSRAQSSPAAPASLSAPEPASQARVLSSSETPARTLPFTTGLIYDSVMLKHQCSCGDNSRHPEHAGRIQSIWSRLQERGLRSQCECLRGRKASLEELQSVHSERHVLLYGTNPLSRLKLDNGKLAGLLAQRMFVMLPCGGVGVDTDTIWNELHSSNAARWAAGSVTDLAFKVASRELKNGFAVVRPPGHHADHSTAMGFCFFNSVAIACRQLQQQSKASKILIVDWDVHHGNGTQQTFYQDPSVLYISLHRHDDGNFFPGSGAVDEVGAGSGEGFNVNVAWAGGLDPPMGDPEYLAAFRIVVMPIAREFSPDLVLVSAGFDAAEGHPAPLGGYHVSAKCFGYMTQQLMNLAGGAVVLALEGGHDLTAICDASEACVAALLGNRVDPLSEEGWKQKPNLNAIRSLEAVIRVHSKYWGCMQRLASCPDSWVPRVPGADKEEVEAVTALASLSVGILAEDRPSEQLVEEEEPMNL
testMethodNotes: Inhibition of recombinant human HDAC7 using fluorescently-labeled acetylated histone peptide as substrate by microfluidic mobility shift assay
measuredQuantity: IC50 (µM)
Your answer should be a plain number; it is taken to be in µM.

Qu. Missing value: IC50, UniProt Q8WUI4, entry C=C1CN(Cc2ccc(C(=O)Nc3ccccc3N)cc2)C(=O)c2ccccc21 . Fill in?
Ans. 4.1

---

targetOfAssay: Protein deacetylase HDAC6 (Homo sapiens, UniProt Q9UBN7)
Sequence (Q9UBN7 whole entry): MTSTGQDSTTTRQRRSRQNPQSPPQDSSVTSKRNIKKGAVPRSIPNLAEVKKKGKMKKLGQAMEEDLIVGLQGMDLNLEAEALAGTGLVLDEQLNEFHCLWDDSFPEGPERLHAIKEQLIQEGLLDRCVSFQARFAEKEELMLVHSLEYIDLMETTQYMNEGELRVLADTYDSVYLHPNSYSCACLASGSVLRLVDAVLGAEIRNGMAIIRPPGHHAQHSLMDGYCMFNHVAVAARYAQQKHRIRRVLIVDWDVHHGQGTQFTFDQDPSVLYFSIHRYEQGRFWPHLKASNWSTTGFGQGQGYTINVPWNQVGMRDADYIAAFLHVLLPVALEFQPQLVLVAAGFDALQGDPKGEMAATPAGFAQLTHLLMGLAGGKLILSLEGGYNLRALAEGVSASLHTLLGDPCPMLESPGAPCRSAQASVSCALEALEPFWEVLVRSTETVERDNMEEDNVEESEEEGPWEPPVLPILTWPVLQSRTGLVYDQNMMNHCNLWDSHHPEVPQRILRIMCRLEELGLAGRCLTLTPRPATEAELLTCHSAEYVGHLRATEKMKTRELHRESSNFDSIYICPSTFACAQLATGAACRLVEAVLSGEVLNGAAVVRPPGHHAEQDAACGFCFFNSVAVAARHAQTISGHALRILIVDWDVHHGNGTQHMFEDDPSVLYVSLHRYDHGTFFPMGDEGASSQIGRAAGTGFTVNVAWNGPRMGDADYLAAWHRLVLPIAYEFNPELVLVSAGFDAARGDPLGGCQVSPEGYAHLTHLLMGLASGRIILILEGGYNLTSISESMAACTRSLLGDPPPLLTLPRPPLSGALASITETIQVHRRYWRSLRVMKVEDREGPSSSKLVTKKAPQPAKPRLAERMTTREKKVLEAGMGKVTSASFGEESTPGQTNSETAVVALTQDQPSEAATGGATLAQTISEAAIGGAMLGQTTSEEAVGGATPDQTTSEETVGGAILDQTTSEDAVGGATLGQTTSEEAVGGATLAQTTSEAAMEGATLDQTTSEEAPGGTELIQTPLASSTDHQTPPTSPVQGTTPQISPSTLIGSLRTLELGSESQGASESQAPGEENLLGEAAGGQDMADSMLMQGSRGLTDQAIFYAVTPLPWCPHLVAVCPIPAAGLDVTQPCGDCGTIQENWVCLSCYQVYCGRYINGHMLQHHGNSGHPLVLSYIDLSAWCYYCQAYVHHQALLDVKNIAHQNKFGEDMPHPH
testMethodNotes: Inhibition of HDAC6 (unknown origin) using (FAM)-labeled acetylated peptide as substrate measured after 17 hrs by fluorescence assay
measuredQuantity: IC50 (nM)
Your answer should be a plain number; it is taken to be in nM.

Qu. What measured IC50 goes with CCOC(=O)Nc1cccc(-c2csc(NC(=O)CCCCCC(=O)NO)n2)c1 ?
Ans. 0.79

Qu. What measured IC50 goes with CC(=O)Nc1cccc(-c2csc(NC(=O)CCCCCC(=O)Nc3ccccc3N)n2)c1 ?
Ans. 11200

Qu. What measured IC50 goes with CC(C)(C)OC(=O)Nc1cccc(-c2csc(NC(=O)CCCCCC(=O)Nc3ccccc3N)n2)c1 ?
Ans. 1500

Qu. What measured IC50 goes with Nc1cccc(-c2csc(NC(=O)CCCCCC(=O)NO)n2)c1 ?
Ans. 3.3

---

targetOfAssay: Histone deacetylase 8 (Homo sapiens, UniProt Q9BY41)
Sequence (Q9BY41 whole entry): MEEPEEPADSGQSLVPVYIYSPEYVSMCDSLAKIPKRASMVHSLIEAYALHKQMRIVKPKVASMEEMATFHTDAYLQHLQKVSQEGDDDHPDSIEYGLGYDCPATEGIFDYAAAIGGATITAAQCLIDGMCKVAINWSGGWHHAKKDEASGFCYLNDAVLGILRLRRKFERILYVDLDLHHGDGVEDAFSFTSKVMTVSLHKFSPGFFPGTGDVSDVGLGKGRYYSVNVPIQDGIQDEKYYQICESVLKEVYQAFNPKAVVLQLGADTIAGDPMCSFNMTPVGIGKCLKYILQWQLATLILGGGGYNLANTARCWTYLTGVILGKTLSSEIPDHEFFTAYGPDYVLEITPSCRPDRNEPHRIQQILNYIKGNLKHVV
testMethodNotes: Inhibition of HDAC8 (unknown origin) using (FAM)-labeled acetylated peptide as substrate measured after 17 hrs by fluorescence assay
Please respond with reported pIC50 for every item in the list.
For clarity, pIC50 is expressed as the negative log10 of concentration in mol/L.

Qu. Missing value: pIC50, Histone deacetylase 8 (Homo sapiens, UniProt Q9BY41), entry CC(C)(C)OC(=O)Nc1cccc(-c2csc(NC(=O)CCCCCC(=O)NO)n2)c1 . Fill in?
Ans. 5.59

Qu. Missing value: pIC50, Histone deacetylase 8 (Homo sapiens, UniProt Q9BY41), entry Nc1cccc(-c2csc(NC(=O)CCCCCC(=O)NO)n2)c1 . Fill in?
Ans. 5.71

Qu. Missing value: pIC50, Histone deacetylase 8 (Homo sapiens, UniProt Q9BY41), entry CCOC(=O)Nc1cccc(-c2csc(NC(=O)CCCCCC(=O)NO)n2)c1 . Fill in?
Ans. 6.10

---

targetOfAssay: Histone deacetylase 8 (Homo sapiens, UniProt Q9BY41)
testMethodNotes: Inhibition of recombinant human HDAC8 using fluorescently-labeled acetylated histone peptide as substrate by microfluidic mobility shift assay
pIC50: −log10 of the molar value.
measuredQuantity: pIC50

Qu. What measured pIC50 goes with C=C1CN(Cc2ccc(C(=O)Nc3ccccc3N)cc2)C(=O)c2ccccc21 ?
Ans. < 5.00
